System: Mucor racemosus (AAS 310)
Test: Screening of fungi for enzyme activity with 4-methylumbelliferone-labelled substrates
Assay type: cell-based
Settings: vegetable juice medium, substrate 10 μM, 25° C., pH 5
property-name: Enzyme activity: amount of released 4-methylumbelliferone during 5 hours of incubation

> print(dat)
                                   compound         result
1  Cc1cc(=O)oc2cc(O[C@@H]3O[C@H](CO)[C@@H](O)[C@H](O)[C@@H]3O)ccc12 [substrate 6, 4-methylumbelliferyl β-D-mannopyranoside]  ** (1 ≦ ** 2)
2  Cc1cc(=O)oc2cc(O[C@H]3O[C@H](C)[C@H](O)[C@H](O)[C@H]3O)ccc12 [substrate 10, 4-methylumbelliferyl α-D-fucoside]  ** (1 ≦ ** 2)

###

Test system: Rhizomucor pusillus (AAS 300)
Assay: Screening of fungi for enzyme activity with 4-methylumbelliferone-labelled substrates
Format: cell-based
Settings: vegetable juice medium, substrate 10 μM, 25° C., pH 5
property-name: Enzyme activity: amount of released 4-methylumbelliferone during 5 hours of incubation

compound	result
Cc1cc(=O)oc2cc(OC3OC(CO)C(O)C(O)C3O)ccc12 [substrate 5, 4-methylumbelliferyl α-D-mannopyranoside]	*** (2 ≦ ***)
CC(=O)N[C@H]1[C@H](Oc2ccc3c(C)cc(=O)oc3c2)O[C@H](COS(=O)(=O)O)[C@@H](O)[C@@H]1O [substrate 1]	0 µmol
CC(=O)N[C@H]1[C@H](Oc2ccc3c(C)cc(=O)oc3c2)O[C@H](CO)[C@@H](O[C@@H]2O[C@H](CO)[C@@H](O[C@@H]3O[C@H](CO)[C@@H](O)[C@H](O)[C@H]3NC(C)=O)[C@H](O)[C@H]2NC(C)=O)[C@@H]1O [substrate 4]	*** (2 ≦ ***)

###

Test system: Schizophyllum commune (AGM 25)
Assay: Screening of fungi for enzyme activity with 4-methylumbelliferone-labelled substrates
Format: cell-based
Settings: vegetable juice medium, substrate 10 μM, 25° C., pH 5
property-name: Enzyme activity: amount of released 4-methylumbelliferone during 5 hours of incubation

molecule	result
CC(=O)N[C@H]1[C@H](Oc2ccc3c(C)cc(=O)oc3c2)O[C@H](CO)[C@@H](O)[C@@H]1O [substrate 3]	*** (2 ≦ ***)
Cc1cc(=O)oc2cc(O[C@@H]3O[C@H](CO)[C@@H](O)[C@H](O)[C@@H]3O)ccc12 [substrate 6, 4-methylumbelliferyl β-D-mannopyranoside]	*** (2 ≦ ***)

###

Test system: Penicillium commune (IBT 13713)
Assay: Screening of fungi for enzyme activity with 4-methylumbelliferone-labelled substrates
Type: cell-based
Details: vegetable juice medium, substrate 10 μM, 25° C., pH 5
property-name: Enzyme activity: amount of released 4-methylumbelliferone during 5 hours of incubation

molecule	result
CC(=O)N[C@H]1[C@H](Oc2ccc3c(C)cc(=O)oc3c2)O[C@H](CO)[C@@H](O)[C@@H]1O [substrate 3]	*** (2 ≦ ***)
Cc1cc(=O)oc2cc(O[C@@H]3OC[C@@H](O)[C@H](O)[C@H]3O)ccc12 [substrate 9, 4-methylumbelliferyl β-D-xyloside]	* (0.4 ≦ * < 1)
Cc1cc(=O)oc2cc(O[C@@H]3O[C@H](CO)[C@@H](O)[C@H](O)[C@@H]3O)ccc12 [substrate 6, 4-methylumbelliferyl β-D-mannopyranoside]	* (0.4 ≦ * < 1)
CC(=O)N[C@H]1[C@H](Oc2ccc3c(C)cc(=O)oc3c2)O[C@H](CO)[C@@H](O[C@@H]2O[C@H](CO)[C@@H](O[C@@H]3O[C@H](CO)[C@@H](O)[C@H](O)[C@H]3NC(C)=O)[C@H](O)[C@H]2NC(C)=O)[C@@H]1O [substrate 4]	*** (2 ≦ ***)

###

Tested on: Schizophyllum commune (AGM 25)
Experiment: Screening of fungi for enzyme activity with 4-methylumbelliferone-labelled substrates
Assay type: cell-based
Settings: vegetable juice medium, substrate 10 μM, 25° C., pH 5
property-name: Enzyme activity: amount of released 4-methylumbelliferone during 5 hours of incubation

compound	assayed-target	result
Cc1cc(=O)oc2cc(O[C@@H]3OC[C@@H](O)[C@H](O)[C@H]3O)ccc12 [substrate 9, 4-methylumbelliferyl β-D-xyloside]	Schizophyllum commune (AGM 25)	*** (2 ≦ ***)
CC(=O)N[C@H]1[C@H](Oc2ccc3c(C)cc(=O)oc3c2)O[C@H](CO)[C@@H](O[C@@H]2O[C@H](CO)[C@@H](O[C@@H]3O[C@H](CO)[C@@H](O)[C@H](O)[C@H]3NC(C)=O)[C@H](O)[C@H]2NC(C)=O)[C@@H]1O [substrate 4]	Schizophyllum commune (AGM 25)	*** (2 ≦ ***)
